biological target: Angiotensin II receptor (Rattus norvegicus) (UniProt P29089+P25095+P35351); experiment: Angiotensin II receptor agonist activity was tested in rat isolated uterus assay using [Asp1,Ile5]ANG II (human angiotensin II) as the standard; assay type: functional, tissue-based
property.name: Activity

# structure.smiles, data.value
records = [
    ("CC[C@H](C)[C@H](NC(=O)[C@H](Cc1ccc(OC)cc1)NC(=O)[C@@H](NC(=O)[C@H](CCCN=C(N)N)NC(=O)[C@H](C)N)C(C)C)C(=O)N[C@@H](Cc1c[nH]cn1)C(=O)N1CCC[C@@H]1C(=O)N[C@@H](Cc1ccccc1)C(=O)O", "< 0.1%"),
]

I need Activity for every entry listed below, if you could help.
1. CC[C@H](C)[C@H](NC(=O)[C@@H](Cc1ccc(O)cc1)NC(=O)[C@@H](NC(=O)[C@H](CCCN=C(N)N)NC(=O)CNC)C(C)C)C(=O)N[C@@H](Cc1c[nH]cn1)C(=O)N1CCC[C@@H]1C(=O)N[C@@H](Cc1ccccc1)C(=O)O
2. CC[C@H](C)[C@H](NC(=O)[C@@H]1CCCN1C(=O)[C@H](Cc1c[nH]cn1)NC(=O)[C@@H](NC(=O)[C@H](Cc1ccc(OC)cc1)NC(=O)[C@@H](NC(=O)[C@H](CCCN=C(N)N)NC(=O)CNC)C(C)C)[C@@H](C)CC)C(=O)O
3. CC[C@H](C)[C@H](NC(=O)[C@@H](Cc1ccccc1)NC(=O)[C@@H](NC(=O)[C@H](CCCN=C(N)N)NC(=O)CNC)C(C)C)C(=O)N[C@@H](Cc1c[nH]cn1)C(=O)N1CCC[C@@H]1C(=O)N[C@@H](Cc1ccccc1)C(=O)O

[out]
1: 2%; 2: < 0.1%; 3: < 0.1%
